# tested-system: NPY2R (Homo sapiens, UniProt P49146)
# Construct: purchased Promega (in-house HiBiT-GPCR construct library, NanoBRET)
# Sequence (P49146 whole entry): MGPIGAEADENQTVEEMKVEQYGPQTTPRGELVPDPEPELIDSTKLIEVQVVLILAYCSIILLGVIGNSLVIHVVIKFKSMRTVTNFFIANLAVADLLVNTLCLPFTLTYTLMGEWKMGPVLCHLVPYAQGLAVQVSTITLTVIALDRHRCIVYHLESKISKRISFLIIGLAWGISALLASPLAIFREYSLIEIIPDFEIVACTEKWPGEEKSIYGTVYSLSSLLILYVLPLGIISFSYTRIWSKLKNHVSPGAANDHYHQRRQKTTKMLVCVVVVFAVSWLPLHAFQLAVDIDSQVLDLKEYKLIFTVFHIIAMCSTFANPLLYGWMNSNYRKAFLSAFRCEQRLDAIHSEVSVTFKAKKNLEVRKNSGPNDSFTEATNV
# protocol-text: NanoBRET screen HiBiT-NPY2R in HEK293
# Format: binding
# details: NPY2R; tracer 1μM
Quick list: NanoBRET Fold Response per entry.

What the record says about CCCn1c(=O)c2[nH]c(-c3ccc(OCC(=O)NCCNC(=O)CCOCCNC(=O)c4ccc(CNC(=O)CCc5ccc6n5[B-](F)(F)[N+]5=C(c7ccc[nH]7)C=CC5=C6)cc4)cc3)nc2n(CCC)c1=O [XAC-3-NB590] : NanoBRET Fold Response is 1.03

What the record says about COc1ccccc1N1CCN(CCCCN2C(=O)c3ccc(CNC(=O)CCOCCOCCOCCOCCNC(=O)CCc4ccc5n4[B-](F)(F)[N+]4=C(c6ccc[nH]6)C=CC4=C5)cc3C2=O)CC1 [NAN-190-2-NB590] : NanoBRET Fold Response is 0.92

What the record says about CC(C)N(CC[C@H](c1ccccc1)c1cc(CCNC(=O)CCOCCOCCOCCOCCNC(=O)CCc2ccc3n2[B-](F)(F)[N+]2=C(c4ccc[nH]4)C=CC2=C3)ccc1O)C(C)C [Tolterodine-2-NB590] : NanoBRET Fold Response is 0.93
